The following molecules are listed with their measured GI50 values.
- System: UACC-62 melanoma
- experimental-protocol: NCI tumour cell line growth inhibition, 48 h
parameter: GI50

• Fc1ccc(/C=N/n2c(-c3ccc(F)c(Cl)c3)nn(CNc3ccccc3C(F)(F)F)c2=S)cc1 = 39200 nM
• O=S(=O)(Nc1cc(Sc2cccc3cccnc23)c(O)c2ccccc12)c1ccc(F)cc1 = 1850 nM
• CCN(CC)c1ccc2cc(C(=O)Nc3ccc4[nH]c(C(=O)N5C[C@@H](CCl)c6c5cc(OC(=O)Nc5ccccc5)c5[nH]cc(C)c65)cc4c3)oc2c1 = 44500 nM
• O=C1/C(=C/c2ccccc2[N+](=O)[O-])Cc2ccccc21 = 1640 nM
• O=C(Nc1ccc(OCc2nnc(-c3ccc(Cl)cc3)o2)c(F)c1)Nc1ccc(Cl)c(C(F)(F)F)c1 = 1540 nM

---

- Test system: SK-OV-3 ovarian
- experimental-protocol: NCI tumour cell line growth inhibition, 48 h
parameter: TGI

- CCC1(c2ccccc2)C(=O)N=C(c2ccccc2)N1CCc1ccccc1 (stereo unspecified): > 100 µM
- N#CC(C#N)=C1NC(=O)CC(=O)N1: > 100 µM
- C/C=C1\CN2CCc3c([nH]c4ccccc34)C2CC1C(=O)OC (stereo unspecified): > 322 µM
- COc1c(F)c(F)c(/C(O)=C\c2nc3ccccc3[nH]c2=O)c(F)c1F: > 10 µM
- CCN(CC)CC1CCCCN1CC(=O)N1c2ccccc2C(=O)Nc2cccnc21 (stereo unspecified): > 100 µM
- CC1(C)C=Cc2c(cc(O)c3c(=O)c4cc(Cl)ccc4[nH]c23)O1: > 10 µM

---

- System: M14 melanoma
- experimental-protocol: NCI tumour cell line growth inhibition, 48 h; in the data active = GI50 below about 0.43 µM; inactive = the rest
Outcome codes: True = active, False = inactive

* CNCCCNCCCCNCCCN1C(=O)c2ccc3c4c(ccc(c24)C1=O)C(=O)N(CCCNCc1ccccc1OC)C3=O | False
* N#CC1(C(N)=O)C(c2ccc(Cl)cc2)CC(=O)CC1c1ccc(Cl)cc1 (centres undefined) | False
* C/C(=C\c1ccc2ccccc2c1)[N+](=O)[O-] | False
* O=C1OCC2=C1C(c1ccc(Cl)c(Cl)c1)c1cc3c(cc1N2CCO)OCCO3 (centres undefined) | True
* CN1CCN(C(=O)c2cc(-c3ccc4ncnc(N5CCc6cc(F)c(Cl)cc65)c4c3)cnc2N)CC1 | True
* O=C1c2c(c3c4ccccc4[nH]c3c3ccc4ccccc4c23)C(=O)N1CCN1CCNCC1 | False
* COc1cc2c3c(n(C)c(=O)c2cc1OC)-c1cc2c(cc1/C3=C\CCCCN1C(=O)c3ccccc3C1=O)OCO2 | False
* OCC1OC(n2cnc3c(N/N=C\c4ccccn4)ncnc32)C(O)C1O (centres undefined) | True
* CC(=O)OC12C=C(C)C(C(C)C1)C1C(=O)N(CCN3CCOCC3)C(=O)C12 (centres undefined) | False

---

- Test system: KM12 colon
- experimental-protocol: NCI tumour cell line growth inhibition, 48 h; in the data active = GI50 below about 0.43 µM; inactive = the rest
Outcome codes: active, inactive

* O=C1NC(=O)C(N2C(=O)c3ccccc3C2=O)CC1O (stereo not given) | inactive
* O=S(=O)(Nc1cc(Sc2cccc3cccnc23)c(O)c2ccccc12)c1ccc(F)cc1 | inactive
* O=C1OCC2=C1C(c1ccc(Cl)c(Cl)c1)c1cc3c(cc1N2CCO)OCCO3 (stereo not given) | active
* FC(F)(F)c1ccc(-c2cnc(-c3ncon3)nc2NC2CCCCCC2)cc1 | inactive
* COc1ccc2cc1Oc1ccc(cc1)C[C@H]1c3c(cc4c(c3Oc3cc5c(cc3OC)CCN(C)[C@@H]5C2)OCO4)CCN1C | inactive

---

- Test system: NCI-H460 lung
- experimental-protocol: NCI tumour cell line growth inhibition, 48 h
Where a SMILES comes first, the peptide text is derived from it. [ ]: non-standard residue; d: D form. The star is where a group is joined. NMeV = CN[C@H](C(=O)O)C(C)C; X29 = COc1ccc(CN*)c(OC)c1; Octanoyl = CCCCCCCC(=O)*; dNMeA = CN[C@H](C)C(=O)O
The following compounds are listed with their measured TGI values.
parameter: TGI

* CCOC(=O)c1c(C)nc2c1c(CN(C)C)c(O)c1[nH]c(C)c(C)nc12 | 61.1 µM
* COc1ccc(-c2cc(-c3ccc(C)cc3)nc3nc(=S)[nH]c(N)c23)cc1 | 27.5 µM
* CCC(C=O)P1(=O)OC(C)(C)CN1C(C)(C)C (stereo not given) | > 100 µM
* COC(=O)[C@H](CCSC)NC(=O)N[C@H](C)c1ccccc1 | > 100 µM
* CC(=O)Oc1cc2c(cc1OC(C)=O)OCC(c1ccccc1)C2 (stereo not given) | 57.9 µM
* COc1cc2c3c(n(C)c(=O)c2cc1OC)-c1cc2c(cc1/C3=C\CCCCN1C(=O)c3ccccc3C1=O)OCO2 | 43.7 µM
* CCCCCCCCCCCCCCCCCC1=NCCN1CCOC1=C(Cl)C(=O)c2ccccc2C1=O | 16.1 µM
* COc1ccc(C2SCC(=O)N2c2ccc(-c3ccc(-n4c(-c5ccccc5)nc5ccccc5c4=O)cc3)cc2)cc1OC (stereo not given) | > 100 µM
* O=C(NN1C(=O)CSC12CCCCC2)c1[nH]c2ccc(Br)cc2c1-c1ccccc1 | 57.9 µM
* C/C(=C\c1ccc2ccccc2c1)[N+](=O)[O-] | 3.83 µM
* Cc1cc(S(=O)(=O)Nc2nc3ccccc3nc2-c2cccc([N+](=O)[O-])c2)c(S)cc1Cl | 35.3 µM
* Cn1c(=O)c2c(nc3n2CC(=O)N3CCCCl)n(C)c1=O | > 100 µM
* C=CC[C@@H](N)C(=O)N(C)[C@@H](C)[C@@H](O)c1ccccc1 | > 100 µM
* CCCCCCCC(=O)N[C@H](C(=O)N[C@H](C(=O)N(C)[C@H](C(=O)N1CCC[C@H]1C(=O)N(C)[C@H](C)C(=O)NCc1ccc(OC)cc1OC)C(C)C)C(C)C)C(C)C (Octanoyl-VV[NMeV]P[dNMeA]-X29) | > 100 µM
* CS(=O)(=O)OCC1CN(S(C)(=O)=O)c2cc(O)ccc21 (stereo not given) | 10.5 µM
* CO/C(=N\N=C\c1ccc(OC)c(OC)c1)c1ccncc1 | > 10 µM
* CC/C=C\C/C=C\C/C=C\CCCCCCCC(=O)OCC(O)CO (stereo not given) | > 100 µM
* CO/N=C(\COc1ccc2c(c1)[nH]c1ccccc12)c1ccc(F)cc1 | > 100 µM
* Oc1ccc(-c2cc(-c3cc(-c4ccc(O)cc4)no3)on2)cc1 | > 100 µM
* COc1ccc2cc1Oc1ccc(cc1)C[C@H]1c3c(cc4c(c3Oc3cc5c(cc3OC)CCN(C)[C@@H]5C2)OCO4)CCN1C | 9.03 µM

---

- Tested on: SF-539 CNS
- experimental-protocol: NCI tumour cell line growth inhibition, 48 h; in the data active = GI50 below about 0.43 µM; inactive = the rest
Outcome codes: T = active, F = inactive

• OCc1ccc(N2CCCC2c2ccccc2)cc1Cl (stereo not drawn) = F
• O=C1c2c(c3c4ccccc4[nH]c3c3ccc4ccccc4c23)C(=O)N1CCN1CCNCC1 = F
• NC(=O)c1csc(C2OC(CO)C(O)C2O)n1 (stereo not drawn) = F
• C1CCC([PH+](C2CCCCC2)C2CCCCC2[PH+](C2CCCCC2)C2CCCCC2)CC1.[Au].[CH-]1CCCCC1CC1CCCC[N-]1 (stereo not drawn) = T
• CNCCCNCCCCNCCCN1C(=O)c2ccc3c4c(ccc(c24)C1=O)C(=O)N(CCCNCc1ccccc1OC)C3=O = F
• O=C1CCC(N2Cc3cc(CNC(=O)C(F)(F)c4ccc(Cl)cc4)ccc3C2=O)C(=O)N1 (stereo not drawn) = F
• OCC1OC(n2cnc3c(N/N=C\c4ccccn4)ncnc32)C(O)C1O (stereo not drawn) = T
• O=C1c2cccnc2C(=O)c2c1c(C(=O)NCCCN1CCCCC1)c1ccccn21 = F
• CN[C@@H](C)C(=O)N[C@H](C(=O)N1CCC[C@H]1C(=O)Nc1sc(-c2ncco2)nc1-c1ccccc1)C1CCCCC1 = F
• O=C1OCC2=C1C(c1ccccc1)c1cc3c(cc1N2)OCO3 (stereo not drawn) = T
• CC1=C2[C@@H](CC1)[C@]1(C)O[C@@](c3ccccc3)(C[C@H]1OC(=O)CO)[C@H]2OC(=O)/C=C/c1ccccc1 = F
• Fc1ccc(/C=N/n2c(-c3ccc(F)c(Cl)c3)nn(CNc3ccccc3C(F)(F)F)c2=S)cc1 = F
• COc1cc(N2C(=O)[C@H](O)C2c2ccc(SC)cc2)cc(OC)c1OC (stereo partly drawn) = T
• Cc1ccc(/C=N\NC(=O)c2[nH]c3ccc(F)cc3c2-c2ccccc2)cc1 = T
• CN=c1ccc2nc3ccc(N)cc3sc-2c1 = F
• O=C(OCc1ccc2ccccc2n1)c1cn(C2CC2)c2cc(N3CCN(Cc4ccc5ccccc5n4)CC3)c(F)cc2c1=O = F
• O=c1[nH]c(=O)n(C2CC(O)C(COP(=O)(OCc3ccc([N+](=O)[O-])o3)N(CCCCCl)CC(O)CO)O2)cc1F (stereo not drawn) = T
• CCOC(=O)C1=C(C)N(c2ccc(Cl)cc2)[C@]2(C#N)C(O)=C(Cl)C(Cl)=C(O)[C@]12C#N = F
